- protocol.notes: Excipient selection based on active compound solubility screening
- Assay type: physicochemical
- run.parameters: filtrate of excipient solution in water, 37 °C, aqueous with cosolvent or surfactant or cyclodextrin, thermodynamic from solid, sodium lauryl sulfate solution, approx. 50 mg/ml; 37° C.; read-out: COMPOUND A Solubility
readout.label: solubility at 5 min

Entry CN1N=C2CCN(C(=O)[C@@H](COCc3ccccc3)NC(=O)C(C)(C)N)C[C@@]2(Cc2ccccc2)C1=O.O=C(O)C(O)C(O)C(=O)O , solubility at 5 min reported as 50 to 100 mg/mL
